test system: Aspergillus ochraceus; assay: Antifungal activity against Aspergillus ochraceus ATCC 12066 after 72 hrs by serial dilution assay; format: functional; details: ATCC 12066, 72 h
Entries whose MIC is below 100 µM take 1 (yes); entries at or above 100 µM take 0 (no).

Problem: Consider the compound O=C1N/C(=N\c2nnc(C34CC5CC(CC(C5)C3)C4)s2)S/C1=C/c1c(F)cccc1F . Is its MIC strictly less than 100 µM?
Result: 0 (no)

Problem: Consider the compound COc1cc(/C=C2/S/C(=N/c3nnc(C45CC6CC(CC(C6)C4)C5)s3)NC2=O)ccc1O . Is its MIC strictly less than 100 µM?
Result: 1 (yes)

Problem: Consider the compound O=C1N/C(=N\c2nnc(C34CC5CC(CC(C5)C3)C4)s2)S/C1=C/c1ccccc1[N+](=O)[O-] . Is its MIC strictly less than 100 µM?
Result: 0 (no)

Problem: Consider the compound O=C1N/C(=N\c2nnc(C34CC5CC(CC(C5)C3)C4)s2)S/C1=C/c1cccc(Cl)c1Cl . Is its MIC strictly less than 100 µM?
Result: 0 (no)

Problem: Consider the compound CC(=O)N1CCN(c2ccc(OCC3COC(Cn4ccnc4)(c4ccc(Cl)cc4Cl)O3)cc2)CC1 (stereo not drawn) [KETOCONAZOLE] . Is its MIC strictly less than 100 µM?
Result: 0 (no)

Problem: Consider the compound O=C1N/C(=N\c2nnc(C34CC5CC(CC(C5)C3)C4)s2)S/C1=C/c1ccc([N+](=O)[O-])cc1 . Is its MIC strictly less than 100 µM?
Result: 1 (yes)

Problem: Consider the compound O=C1N/C(=N\c2nnc(C34CC5CC(CC(C5)C3)C4)s2)S/C1=C/c1cccc(Cl)c1 . Is its MIC strictly less than 100 µM?
Result: 1 (yes)
